Test system: NCI-H23
Assay: NCI tumour cell line growth inhibition, 48 h
Activity calls are given as the source filed them. Cut-off read from the data, not from the text of the source: active = GI50 up to about 1.1 µM and inactive = higher.
Lab note: assign the record to one of active, inactive

[[record]]
compound = "C[C@@H](Oc1ccc(Oc2cnc3ccc(Cl)cc3n2)cc1)C(=O)O [R(+)XK469]"
group_label = "inactive"

[[record]]
compound = "CCOC(=O)C1=C(C)C2C3C(=O)OC(=O)C3C1(C)C1C(=O)OC(=O)C21 (configuration not stated)"
group_label = "inactive"

[[record]]
compound = "COc1cc(Br)c(/C=N\\c2cccc3cc(OC)c(OC)cc23)cc1OC"
group_label = "inactive"

[[record]]
compound = "c1ccc2c(c1)oc1ccc3nsnc3c12"
group_label = "inactive"

[[record]]
compound = "CCCCCCCCCc1c(Cl)nc(Cl)nc1Cl"
group_label = "inactive"


Query: What outcome does the record of this test show for CC(SC(=S)N1CCCC1)C(=O)Nc1nnc(-c2ccc(Cl)cc2)o1 (configuration not stated) ?
Result: inactive

Query: // outcome(item) with item = CCOC(=O)CCC(NC(=O)c1ccc(Nc2nc3ccccc3nc2C(=O)OCC)cc1)C(=O)OCC (configuration not stated)
Result: inactive

Query: Write down the call the test reported for this compound. Item: O=c1oc2c(Cl)cc(Cl)cc2cc1C1=CSC2=NCCN12
Result: inactive
